PROCEDURE_TEXT: Induction of CYP3A4 gene expression in cryopreserved human hepatocytes assessed as increase in CYP3A4 mRNA level at 10 uM incubated for 24 hrs by qRT-PCR analysis relative to rifampicin
Format: ADME, cell-based
MEASUREMENT_TYPE: Activity (%)

INSERT INTO results (smiles_repr, observed_measurement) VALUES
  ('CCOC(=O)C1=C(CN2CC(F)(F)C[C@H]2C(=O)O)NC(c2nccs2)=N[C@H]1c1ccc(F)cc1Cl', 123),
  ('CCOC(=O)C1=C(CN2CCOC[C@H]2C(=O)O)NC(c2nccs2)=N[C@H]1c1cc(F)c(F)c(F)c1', 72),
  ('CCOC(=O)C1=C(CN2CCOC[C@H]2C(=O)O)NC(c2nccs2)=N[C@H]1c1ccc(F)cc1Cl', 173),
  ('COC(=O)C1=C(CN2CC(F)(F)C[C@H]2C(=O)O)NC(c2nccs2)=N[C@H]1c1ccc(F)c(F)c1', 52),
  ('CCOC(=O)C1=C(CN2CCOC[C@H]2C(=O)O)NC(c2nccs2)=N[C@H]1c1ccc(F)cc1F', 135),
  ('COC(=O)C1=C(CN2CCOC[C@H]2C(=O)O)NC(c2nccs2)=N[C@H]1c1ccc(F)c(F)c1', 36);

(1) CCOC(=O)C1=C(CN2CCOC[C@H]2C(=O)O)NC(c2nccs2)=N[C@H]1c1ccc(C)c(F)c1
(2) COC(=O)C1=C(CN2CC(F)(F)C[C@H]2C(=O)O)NC(c2nccs2)=N[C@H]1c1ccc(F)cc1Cl
Request: # min-compare on Activity between 1 and 2 // return label of chosen record
Result: 1
(1: 40%, 2: 109%)
